molecular target: UniProtKB P21730
Sequence (P21730 whole entry): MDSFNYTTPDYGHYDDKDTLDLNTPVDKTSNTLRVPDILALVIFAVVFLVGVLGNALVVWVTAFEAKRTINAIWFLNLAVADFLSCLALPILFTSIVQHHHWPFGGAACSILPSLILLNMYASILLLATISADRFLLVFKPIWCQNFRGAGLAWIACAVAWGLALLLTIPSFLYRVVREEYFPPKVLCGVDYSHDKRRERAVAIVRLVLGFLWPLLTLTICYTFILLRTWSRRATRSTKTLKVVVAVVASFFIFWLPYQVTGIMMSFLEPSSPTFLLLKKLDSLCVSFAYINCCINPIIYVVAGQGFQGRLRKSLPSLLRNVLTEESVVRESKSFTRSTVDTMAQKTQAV
pIC50: −log10 of the molar value.
observation.type: pIC50

>  <molecule>
N=C(N)NCCCc1[nH]c(=O)n(C(CCc2ccccc2)C(=O)N2CCC3(CCc4ccccc43)CC2)c1O (centres undefined)

>  <numeric.result>
5.52

$$$$
>  <molecule>
CCC[C@H](C(=O)N1CCC2(CCc3ccccc32)CC1)n1c(O)c(CCCNC(=N)N)[nH]c1=O

>  <numeric.result>
5.52

$$$$
>  <molecule>
NCCCCc1[nH]c(=O)n([C@H](CC2CCCCC2)C(=O)N2CCC3(CCc4ccccc43)CC2)c1O

>  <numeric.result>
5.40

$$$$
>  <molecule>
N=C(N)NCCCc1[nH]c(=O)n([C@H](Cc2ccc(O)cc2)C(=O)N2CCC3(CCc4ccccc43)CC2)c1O

>  <numeric.result>
5.40

$$$$
